tested on: Plasmodium falciparum; assay: GSK_TCMDC: Inhibition of Plasmodium falciparum Dd2 in whole red blood cells, using parasite LDH activity as an index of growth. Test compounds present at 2uM; assay type: functional
readout label: Inhibition (%)
Just the number in %, nothing appended.

A selection of reference data follows.
Cc1cccc(-c2cccc3c(NC(=O)N4CCc5cc6nccc(N7CCN8CCC[C@H]8C7)c6cc54)cccc23)n1.Cl    68
CCOc1cc2c(cc1OCC)C(c1cc(OC)c(O)cc1Cl)NCC2 (centres undefined)    97

Short answer for Cc1cc(-c2cccc(CNC3CCN(C)CC3)c2)ccc1S(=O)(=O)NCc1ccccc1.O=C(O)C(F)(F)F : Inhibition was 90

# Inhibition of O=C(c1ccc(Cl)cc1)N1CCOC(CCN2CCC(c3ccccc3)CC2)(c2ccc(Cl)c(Cl)c2)C1 (centres undefined) = 68
